- RUN CONDITIONS: rat, in vivo
MEASURED QUANTITY: % Enhancement in bioavailability, Carum carvi + piperine, Frac 1. (Cc)

| SMILES CODE | TEST RESULT |
| --- | --- |
| O=C1O[C@H]([C@@H](O)CO)C(O)=C1O | Nil |
| [Cu] | Nil |
| [Se] | nil |
| Nc1nc2ncc(CNc3ccc(C(=O)N[C@@H](CCC(=O)O)C(=O)O)cc3)nc2c(=O)[nH]1 | nil |

----------
- RUN CONDITIONS: rat, in vivo
MEASURED QUANTITY: % Enhancement in bioavailability, Carum carvi + piperine, Extr. (Cc)

| SMILES CODE | TEST RESULT |
| --- | --- |
| [Cu] | nil |
| [Se] | Nil |
| O=C1O[C@H]([C@@H](O)CO)C(O)=C1O | Nil |
| Nc1nc2ncc(CNc3ccc(C(=O)N[C@@H](CCC(=O)O)C(=O)O)cc3)nc2c(=O)[nH]1 | nil |

----------
- MEASUREMENT PROTOCOL: Enhancement of bioavailability of drugs given to rats with bioenhancers (plasma drug level by HPLC)
- RUN CONDITIONS: nutraceutical with Carum carvi extract and piperine
MEASURED QUANTITY: % Enhancement in bioavailability, Carum carvi + piperine, Extr. (Cc)

| SMILES CODE | TEST RESULT |
| --- | --- |
| [Zn] | nil |
| [Ca+2] | nil |
| Cc1ncc(CO)c(CO)c1O | Nil |
| [K+] | nil |

----------
- RUN CONDITIONS: rat, in vivo
MEASURED QUANTITY: % Enhancement in bioavailability, Carum carvi + Zingiber officinale, Frac 1. (Cc)

| MOLECULE | TEST RESULT |
| --- | --- |
| O=C1O[C@H]([C@@H](O)CO)C(O)=C1O [Vit C] | Nil |
| [Cu] [Copper] | Nil |
| Nc1nc2ncc(CNc3ccc(C(=O)N[C@@H](CCC(=O)O)C(=O)O)cc3)nc2c(=O)[nH]1 [Folio Acid] | nil |

----------
- RUN CONDITIONS: rat, in vivo
MEASURED QUANTITY: % Enhancement in bioavailability, Carum carvi + Zingiber officinale, Extr. (Cc)

These solved cases illustrate the format of a correct answer.
| COMPOUND | TEST RESULT |
| --- | --- |
| [Se] [Selenium] | nil |
| [Cu] [Copper] | Nil |
| NCCCC[C@H](N)C(=O)O [Lysine] | 39% |
| O=C1O[C@H]([C@@H](O)CO)C(O)=C1O [Vit C] | Nil |

Next item in the queue.
Suppose we examine the compound Nc1nc2ncc(CNc3ccc(C(=O)N[C@@H](CCC(=O)O)C(=O)O)cc3)nc2c(=O)[nH]1 [Folio Acid] ; what % Enhancement in bioavailability, Carum carvi + Zingiber officinale, Extr. (Cc) value has been reported? nil
